# Target of assay: T1, Ang2 with I434 mutated with alanine, tagged with FLAG (human, UniProt O15123 19-496, limits assumed)
# T1 sequence: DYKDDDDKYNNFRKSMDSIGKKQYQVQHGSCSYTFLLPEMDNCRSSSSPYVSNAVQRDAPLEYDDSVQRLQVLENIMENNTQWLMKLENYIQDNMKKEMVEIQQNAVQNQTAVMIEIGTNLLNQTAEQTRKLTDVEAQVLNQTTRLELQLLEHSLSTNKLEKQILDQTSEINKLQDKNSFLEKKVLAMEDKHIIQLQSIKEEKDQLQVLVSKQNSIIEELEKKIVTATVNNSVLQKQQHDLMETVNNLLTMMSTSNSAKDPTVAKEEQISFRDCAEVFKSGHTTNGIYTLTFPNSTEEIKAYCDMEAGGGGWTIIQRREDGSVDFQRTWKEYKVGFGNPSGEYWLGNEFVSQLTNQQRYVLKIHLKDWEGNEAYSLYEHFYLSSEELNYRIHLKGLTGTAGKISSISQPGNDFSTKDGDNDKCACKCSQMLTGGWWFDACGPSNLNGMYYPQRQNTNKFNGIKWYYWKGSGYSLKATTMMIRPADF
# Protocol notes: ELISA, scFv coated, 250 ng FLAG-tagged Ang2 mutant, anti-FLAG-HRP
Known Relative binding (%) with Mutant Ang2 compared to the binding with native Ang2 of a selection of binders
Please reply with the bare figure in % and do not write the unit itself.

See these solved cases before continuing.
- Binder: "SAIT-ANG-2-AB-4-F5 (scFv form) (scFv, V domains shown, scFv from a phage display library) VH: EVQLLESGGGLVQPGGSLRLSCAASGFTFSDYDMSWVRQAPGKGLEWVSSISHGDSNKYYADSVKGRFTISRDNSKNTLYLQMNSLRAEDTAVYYCAKSSGIQESPPTYYYYGMDVWGQGTLVTVSS VL: QSVLTQPPSASGTPGQRVTISCSGSSSNIGSNAVNWYQQLPGTAPKLLIYADSNRPSGVPDRFSGSKSGTSASLAISGLRSEDEADYYCGSWDYSLSGYVFGGGTKLTVLG"
  Experimental result: 68.6
- Binder: "SAIT-ANG-2-AB-8-A5 (scFv form) (scFv, V domains shown, scFv from a phage display library) VH: EVQLLESGGGLVQPGGSLRLSCAASGFTFSDYYMSWVRQAPGKGLEWVSGIYPSGGSTYYADSVKGRFTISRDNSKNTLYLQMNSLRAEDTAVYYCARDPSTLTYAGFDYWGQGTLVTVSS VL: QSVLTQPPSASGTPGQRVTISCSGSSSNIGNNYVTWYQQLPGTAPKLLIYADSHRPSGVPDRFSGSKSGTSASLAISGLRSEDEADYYCATWDYSLSGYVFGGGTKLTVLG"
  Experimental result: 4
- Binder: "SAIT-ANG-2-AB-3-D3 (scFv form) (scFv, V domains shown, scFv from a phage display library) VH: EVQLLESGGGLVQPGGSLRLSCAASGFTFSDYDMSWVRQAPGKGLEWVSGISSDDGNTYYADSVKGRFTISRDNSKNTLYLQMNSLRAEDTAVYYCARPTIDKYTLRGYYSYGMDVWGQGTLVTVSS VL: QSVLTQPPSASGTPGQRVTISCTGSSSNIGSNYVSWYQQLPGTAPKLLIYSDNKRPSGVPDRFSGSKSGTSASLAISGLRSEDEADYYCGTWDDSLNGYVFGGGTKLTVLG"
  Experimental result: 93.4

Bench note: what Relative binding (%) with Mutant Ang2 compared to the binding with native Ang2 did SAIT-ANG-2-AB-7-C9 (scFv form) (scFv, V domains shown, scFv from a phage display library) VH: EVQLLESGGGLVQPGGSLRLSCAASGFTFSNYAMSWVRQAPGKGLEWVSAISSGGGNIYYADSVKGRFTISRDNSKNTLYLQMNSLRAEDTAVYYCAKSGIQPSPPSMSSAYAMDVWGQGTLVTVSS VL: QSVLTQPPSASGTPGQRVTISCSGSSSNIGNNDVYWYQQLPGTAPKLLIYANSHRPSGVPDRFSGSKSGTSASLAISGLRSEDEADYYCGTWDYSLSGYVFGGGTKLTVLG show?
8.7
